Assay: Permeability measured by traditional experiments (macroscopic diffusion cells)
Format: in vitro ADME
metric-name: Papp (×10⁻⁶ cm/s)
Give the number; ×10⁻⁶ cm/s is assumed, so skip it.

What value of measured Papp is listed for `C[C@]12CCC(=O)C=C1CC[C@@H]1[C@@H]2[C@@H](O)C[C@]2(C=O)[C@@H](C(=O)CO)CC[C@@H]12` ?
0.00833

What value of measured Papp is listed for `CCCCCCCCO` ?
19.4

What value of measured Papp is listed for `CCCCCCCCCCCCCCCCCCO` ?
25

What value of measured Papp is listed for `CC(=O)[C@H]1CC[C@H]2[C@@H]3CCC4=CC(=O)CC[C@]4(C)[C@H]3CC[C@]12C` ?
5.56
